target: L38D
assay_notes: SPR; 25 C
pKd: −log10 of the molar value.
quantity_name: pKd

See these solved cases before continuing.
- binder: "BMP10 (ligand) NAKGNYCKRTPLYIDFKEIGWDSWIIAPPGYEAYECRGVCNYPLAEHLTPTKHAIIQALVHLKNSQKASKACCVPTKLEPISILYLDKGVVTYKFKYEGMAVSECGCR"
  recorded_measurement: 9.82
- binder: "GDF11 (ligand) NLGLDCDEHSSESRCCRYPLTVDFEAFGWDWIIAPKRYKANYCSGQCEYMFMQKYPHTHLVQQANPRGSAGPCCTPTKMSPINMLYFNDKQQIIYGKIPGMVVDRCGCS"
  recorded_measurement: 10.52

A. BMP9 (ligand) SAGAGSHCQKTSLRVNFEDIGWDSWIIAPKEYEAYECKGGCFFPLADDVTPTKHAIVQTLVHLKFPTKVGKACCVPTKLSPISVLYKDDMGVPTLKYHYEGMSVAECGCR
B. Activin A (ligand) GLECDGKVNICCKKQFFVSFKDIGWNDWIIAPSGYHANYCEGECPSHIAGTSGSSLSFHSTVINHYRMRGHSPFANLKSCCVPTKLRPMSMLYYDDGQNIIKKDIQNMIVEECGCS
Hi team, can someone confirm which has the larger pKd: A or B ? Thanks. In your reply, give the label of the chosen option. A
(A: 10.20, B: 9.64)

Reference source for all entries: patent US20240197902A1
